system: SNB-19; test: NCI tumour cell line growth inhibition, 48 h
Calls of active or inactive are those of the source. Rule as the data show it: active = GI50 up to about 1.1 µM and inactive = higher.
Possible outcomes: active, inactive

> print(dat)
                                    compound  discrete.label
 1  COc1ccc(C2C3=C(COC3=O)Oc3cc4c(cc32)OCO4)cc1OC (configuration not stated)          active
 2  Cc1ccc(O)c(Cc2nc3ccccc3nc2-c2cccc(Cl)c2)c1        inactive
 3  CC1CCC2(C(=O)O)CCC3(C)C(=CCC4C5(C)CC(O)C(O)C(C)(CO)C5C(O)CC43C)C2C1C (configuration not stated)        inactive
 4  CN1[C@@H]2CCCC[C@H]2N(C)P1(=O)C(O)/C=C/c1ccccc1 (some centres not stated)        inactive
 5  CCOC(=O)N1C=CC(=C2C(=C3C=CN(C(=O)OCC)C=C3)C(=C3C=CN(C(=O)OCC)C=C3)C2=C2C=CN(C(=O)OCC)C=C2)C=C1        inactive
 6            CCCNCc1nc2ccc(Br)cc2c(=O)n1CCC        inactive
 7  O=[N+]([O-])/C(C(Cl)=C(Cl)Cl)=C(/Cl)SCc1ccccc1        inactive
 8       CC(C)(C)OC(=O)NCCCCCCC(=O)Cc1ccccc1        inactive
 9  N#CC1(C#N)C(c2ccccc2)C=CC12OCCCO2 (configuration not stated)        inactive
10  COC(=O)[C@H](Cc1c[nH]c2ccccc12)NC(=O)c1ccccc1I        inactive
11  c1ccc2c(c1)c1c3n2-c2cc(on2)C3CCC1 (configuration not stated)        inactive
12  c1ccc(/N=C(\N2CCOCC2)N(CCN2CCOCC2)c2ccccc2)cc1        inactive
13  CCOC(=O)NC(=O)c1cn(C2CCCCC2)c(=O)[nH]c1=O        inactive
14  COC(=O)C1CSC(c2csc(CCN)n2)=N1 (configuration not stated)        inactive
15  COc1ccc(/N=N/c2c(-c3c(OC)cc4occc4c3OC)[nH]c(=O)c(C#N)c2C)cc1        inactive
16  c1ccc(CCCN2C3CCC2CN(CCOC(c2ccccc2)c2ccccc2)C3)cc1        inactive
17           N#CCc1nc2c(s1)C(=O)c1ccccc1C2=O        inactive
18  CCN1CCC(O)(c2ccc(Oc3ccc(F)cc3)cc2)C(C(=O)c2ccc(Oc3ccc(F)cc3)cc2)C1 (configuration not stated)        inactive
19  COC(=O)C1(O)c2ccccc2N=C2C1CCN2C (configuration not stated)        inactive
20  COc1ccc2c(c1)c(=O)c1c(NCCNCCO)ccc3c(=O)n(CCN(C)C)c(=O)n2c31          active
21  OC1(c2ccccc2)CSc2ncnn21 (configuration not stated)        inactive
22  O=C1c2ccc3c4ccc5c6c(ccc(c7ccc(c2c37)C(=O)N1CCN1CCCCC1)c64)C(=O)N(CCN1CCCCC1)C5=O        inactive
